All figures here come from patent US9169254B2.

TARGET DESC: human PTH1 receptor (Homo sapiens, UniProt Q03431)
Sequence (Q03431 27-593): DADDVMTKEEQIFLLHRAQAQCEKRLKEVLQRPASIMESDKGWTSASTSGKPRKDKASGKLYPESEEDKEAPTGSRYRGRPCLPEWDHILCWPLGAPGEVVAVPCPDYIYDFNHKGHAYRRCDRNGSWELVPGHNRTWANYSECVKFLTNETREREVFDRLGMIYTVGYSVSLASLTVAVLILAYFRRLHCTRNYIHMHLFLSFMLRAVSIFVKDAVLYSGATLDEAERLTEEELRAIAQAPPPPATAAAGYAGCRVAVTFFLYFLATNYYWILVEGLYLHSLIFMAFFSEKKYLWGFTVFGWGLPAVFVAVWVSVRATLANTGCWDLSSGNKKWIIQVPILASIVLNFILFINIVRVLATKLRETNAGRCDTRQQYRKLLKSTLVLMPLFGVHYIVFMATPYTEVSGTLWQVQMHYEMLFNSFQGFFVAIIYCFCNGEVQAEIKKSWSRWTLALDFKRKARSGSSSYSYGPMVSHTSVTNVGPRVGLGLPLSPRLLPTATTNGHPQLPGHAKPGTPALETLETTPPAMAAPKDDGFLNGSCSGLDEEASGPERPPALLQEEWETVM
ASSAY COMMENT: In vitro cAMP signal activity in HKRK-B7 cells (LLC-PK1 cells overexpressing the human PTH1 receptor)
Format: cell-based
MEASUREMENT CONTEXT: HKRK-B7 cells; compound at 1×10^−3 M; cAMP produced as percentage of that produced by hPTH(1-34) at 100 nM
Hi! Could you tag entries with cAMP production activity (%) below 40% as 1, and those at or above as -1? Much appreciated.

>  <COMPOUND>
O=C1NC(C2CCCCC2)=NC12CCN(S(=O)(=O)CCCc1cccc(O)c1)CC2 [Compound 317]

>  <LABEL VALUE>
-1

$$$$

-- ask Regarding CNc1cc(C)c(/C=C/S(=O)(=O)N2CCC3(CC2)N=C(CCCCCCCCC(F)(F)F)NC3=O)c(C)c1 [Compound 690] , kindly confirm whether its cAMP production activity (%) is beneath 40%.
-- reply -1

-- ask Regarding Cc1cc(C(=O)N2CCC(C)(O)CC2)cc(C)c1/C=C/S(=O)(=O)N1CCC2(CC1)N=C(c1ccc(OC(F)(F)C(F)F)cc1)NC2=O [Compound 1213] , kindly confirm whether its cAMP production activity (%) is beneath 40%.
-- reply -1

-- ask Regarding Cc1cc(C(=O)N2CCC(C)(O)CC2)cc(C)c1/C=C/[S@TB4](=O)(=O)N1CCC2(CC1)N=C(c1ccc(F)c(OC(F)(F)F)c1)NC2=O [Compound 1099] , kindly confirm whether its cAMP production activity (%) is beneath 40%.
-- reply -1
